# credit: paper PMC3072462

target: recombinant HIV-1 IN (ST) (Human immunodeficiency virus type 1 group M subtype B, UniProt P04585); experiment: In vitro integrase catalytic gel assay, strand transfer
pIC50: −log10 of the molar value.
valueType: pIC50

smilesRepresentation	pIC50
O=c1c2ccccc2n(Cc2ccccc2)c(=O)n1O	< 3.95

Let's switch to this compound now.
The compound identified as O=c1c2ccccc2n(Cc2ccc(F)cc2)c(=O)n1O registered its pIC50 at < 3.95

---

target: recombinant HIV-1 IN (3′P) (Human immunodeficiency virus type 1 group M subtype B, UniProt P04585); assay: In vitro integrase catalytic gel assay, 3′ processing; format: biochemical
pIC50: −log10 of the molar value.
valueType: pIC50

Solved entries:
smilesRepresentation	valueType	result
CC(C)c1c(Cc2ccccc2)n(Cc2ccc(F)cc2)c(=O)n(O)c1=O	pIC50	< 3.95
CC(C)c1c(Cc2ccccc2)n(COCc2cccc(Cl)c2F)c(=O)n(O)c1=O	pIC50	< 3.95

# context switch: different compound, same pIC50
For this compound ( CC(C)c1c(Cc2ccccc2)n(COCCCCc2ccc(F)cc2)c(=O)n(O)c1=O ), measured pIC50 is < 3.95
